Form: system (JAK1 (Homo sapiens, UniProt P23458)), quantity (IC50), values below.

Solved cases (5 shown):
molecule: Cn1cc(C(=O)NCCC(F)(F)F)c2c1CCN(c1ncnc3[nH]ccc13)C2
target_system: JAK1 (Homo sapiens, UniProt P23458)
Sequence (P23458 whole entry): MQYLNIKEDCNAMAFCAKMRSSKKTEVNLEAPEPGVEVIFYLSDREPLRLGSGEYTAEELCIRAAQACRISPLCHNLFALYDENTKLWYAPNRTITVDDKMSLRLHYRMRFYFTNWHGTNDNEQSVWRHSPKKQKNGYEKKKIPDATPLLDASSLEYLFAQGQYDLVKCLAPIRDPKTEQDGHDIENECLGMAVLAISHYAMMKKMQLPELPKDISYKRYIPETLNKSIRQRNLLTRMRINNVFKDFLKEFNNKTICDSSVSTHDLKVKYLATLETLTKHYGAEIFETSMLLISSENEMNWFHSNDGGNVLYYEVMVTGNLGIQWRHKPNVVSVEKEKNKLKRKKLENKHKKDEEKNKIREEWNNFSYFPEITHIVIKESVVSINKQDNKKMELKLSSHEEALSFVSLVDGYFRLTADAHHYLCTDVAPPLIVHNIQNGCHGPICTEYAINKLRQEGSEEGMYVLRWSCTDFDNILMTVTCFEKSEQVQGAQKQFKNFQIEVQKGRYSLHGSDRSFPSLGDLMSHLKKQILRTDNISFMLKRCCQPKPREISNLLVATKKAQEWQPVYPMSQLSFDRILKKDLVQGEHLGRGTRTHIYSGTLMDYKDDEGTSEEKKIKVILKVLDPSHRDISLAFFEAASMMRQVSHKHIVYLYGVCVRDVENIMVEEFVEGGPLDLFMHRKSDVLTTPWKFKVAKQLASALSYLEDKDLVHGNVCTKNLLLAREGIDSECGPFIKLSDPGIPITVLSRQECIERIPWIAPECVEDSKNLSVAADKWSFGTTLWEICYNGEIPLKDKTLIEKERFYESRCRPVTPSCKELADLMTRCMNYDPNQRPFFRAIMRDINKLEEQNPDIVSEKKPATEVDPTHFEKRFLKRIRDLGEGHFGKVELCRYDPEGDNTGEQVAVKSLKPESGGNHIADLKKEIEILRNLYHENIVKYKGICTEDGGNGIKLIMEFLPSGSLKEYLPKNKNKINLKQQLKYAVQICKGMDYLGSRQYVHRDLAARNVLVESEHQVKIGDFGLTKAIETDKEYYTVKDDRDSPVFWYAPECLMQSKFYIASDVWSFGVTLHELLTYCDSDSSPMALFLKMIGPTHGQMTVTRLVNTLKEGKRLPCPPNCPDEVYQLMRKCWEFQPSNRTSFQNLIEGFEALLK
IC50: < 0.1 µM
//
molecule: CS(=O)(=O)N1CCCC1CCNC(=O)c1noc2c1CN(c1ncnc3[nH]ccc13)CC2 (centres unmarked)
target_system: JAK1 (Homo sapiens, UniProt P23458)
IC50: 0.5 to 2 µM
//
molecule: CN(C)C1CN(CCNC(=O)c2noc3c2CN(c2ncnc4[nH]ccc24)CC3)C1
target_system: JAK1 (Homo sapiens, UniProt P23458)
IC50: 0.5 to 2 µM
//
molecule: O=C(NCC(F)(F)F)c1noc2c1CN(c1ncnc3[nH]ccc13)CC2
target_system: JAK1 (Homo sapiens, UniProt P23458)
IC50: < 0.1 µM
//
molecule: O=C(NCCC(F)(F)F)c1nsc2c1CN(c1ncnc3[nH]ccc13)CC2
target_system: JAK1 (Homo sapiens, UniProt P23458)
IC50: < 0.1 µM

Could I get IC50 for every one of these entries?
1. O=C(NCCC(F)(F)F)c1noc2c1CN(c1ncnc3[nH]ncc13)CC2
2. O=C(NCCC(F)(F)F)c1n[nH]c2c1CN(c1ncnc3[nH]ccc13)CC2
3. O=C(NC(CO)CC(F)(F)F)c1noc2c1CN(c1ncnc3[nH]ccc13)CC2 (centres unmarked)

1. 0.1 to 0.5 µM
2. < 0.1 µM
3. < 0.1 µM

* * *

biological target: JAK3 (Homo sapiens, UniProt P52333)
pIC50: −log10 of the molar value.
readout_name: pIC50

molecule: Cn1nc(C(=O)N[C@H]2C[C@H](C(=O)NCCC(F)(F)F)C2)c2c1CCN(c1ncnc3[nH]ccc13)C2
test_result: 5.70 to 6.30
//
molecule: Cn1nc(C(=O)N[C@H]2C[C@H](CC#N)C2)c2c1CCN(c1ncnc3[nH]ccc13)C2
test_result: 5.70 to 6.30

Count: 6. Required value per item: pIC50.
1. CSC(CNC(=O)c1noc2c1CN(c1ncnc3[nH]ccc13)CC2)C(F)(F)F (centres unmarked)
2. O=C(NCCC(F)(F)F)n1ccc2c1CN(c1ncnc3[nH]ccc13)CC2
3. CCS(=O)(=O)n1nc(C(=O)NCCC(F)(F)F)c2c1CCN(c1ncnc3[nH]ccc13)C2
4. O=C(NC1CC1C(F)(F)F)c1noc2c1CN(c1ncnc3[nH]ccc13)CC2 (centres unmarked)
5. O=C(NCC1CC(F)(F)C1)c1noc2c1CN(c1ncnc3[nH]ccc13)CC2
6. O=C(NC[C@@H]1CC[C@H]1O)c1noc2c1CN(c1ncnc3[nH]ccc13)CC2 (relative stereo)

6.30 to 7.00
5.70 to 6.30
> 7.00
> 7.00
> 7.00
6.30 to 7.00

* * *

I'd appreciate it if you could supply IC50 values for the items below.
Target: JAK3 (Homo sapiens)
Sequence (P52333 1-1124): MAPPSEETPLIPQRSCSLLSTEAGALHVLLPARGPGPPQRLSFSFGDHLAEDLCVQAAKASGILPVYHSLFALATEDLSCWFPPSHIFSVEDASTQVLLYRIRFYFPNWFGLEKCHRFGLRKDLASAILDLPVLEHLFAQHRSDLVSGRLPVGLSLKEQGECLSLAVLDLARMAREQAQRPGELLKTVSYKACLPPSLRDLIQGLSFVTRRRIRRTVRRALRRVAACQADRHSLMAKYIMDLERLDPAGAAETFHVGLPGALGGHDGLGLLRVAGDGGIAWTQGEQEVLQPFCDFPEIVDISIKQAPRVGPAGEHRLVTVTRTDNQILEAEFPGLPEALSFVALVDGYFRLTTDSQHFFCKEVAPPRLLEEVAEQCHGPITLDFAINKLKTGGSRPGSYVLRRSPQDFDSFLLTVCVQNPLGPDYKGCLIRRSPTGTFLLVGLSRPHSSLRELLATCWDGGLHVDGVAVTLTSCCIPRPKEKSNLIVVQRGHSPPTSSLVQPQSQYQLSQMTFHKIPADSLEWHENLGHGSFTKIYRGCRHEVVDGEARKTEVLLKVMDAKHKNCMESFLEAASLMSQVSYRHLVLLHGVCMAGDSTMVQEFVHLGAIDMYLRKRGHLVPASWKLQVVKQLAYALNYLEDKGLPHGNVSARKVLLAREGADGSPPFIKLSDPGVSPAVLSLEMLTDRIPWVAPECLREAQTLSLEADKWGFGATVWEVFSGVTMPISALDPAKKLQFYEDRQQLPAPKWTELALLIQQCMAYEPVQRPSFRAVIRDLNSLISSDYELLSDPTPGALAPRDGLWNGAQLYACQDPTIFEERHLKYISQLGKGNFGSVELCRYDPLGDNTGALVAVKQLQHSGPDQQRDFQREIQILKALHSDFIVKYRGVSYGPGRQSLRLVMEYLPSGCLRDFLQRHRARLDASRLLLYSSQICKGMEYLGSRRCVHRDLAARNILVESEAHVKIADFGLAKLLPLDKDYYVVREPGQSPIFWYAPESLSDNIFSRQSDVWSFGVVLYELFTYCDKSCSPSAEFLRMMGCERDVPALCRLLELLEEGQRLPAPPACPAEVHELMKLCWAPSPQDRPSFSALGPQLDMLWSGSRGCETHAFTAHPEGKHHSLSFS

Please review the following examples before continuing.
molecule: COCCn1nc(C(=O)NCCC(F)(F)F)c2c1CCN(c1ncnc3[nH]ccc13)C2 [Compound 104]
test_result: < 100 nM
--
molecule: CN1CCCC1CCNC(=O)c1noc2c1CN(c1ncnc3[nH]ccc13)CC2 (stereo not drawn) [Compound 155]
test_result: 500 to 2000 nM
--
molecule: COC(=O)[C@H]1C[C@H](NC(=O)c2nn(C)c3c2CN(c2ncnc4[nH]ccc24)CC3)C1 [Compound 121]
test_result: > 2000 nM
--
molecule: O=C(NCCC(F)(F)F)c1nn(CCCCc2ccccc2)c2c1CN(c1ncnc3[nH]ccc13)CC2 [Compound 116]
test_result: 100 to 500 nM
--
molecule: CS(=O)(=O)N1CCC(CCNC(=O)c2noc3c2CN(c2ncnc4[nH]ccc24)CC3)C1 (stereo not drawn) [Compound 165]
test_result: > 2000 nM

Now take the following molecule into account.
Fill in the recorded IC50 for this molecule, with JAK3 (Homo sapiens) as test system: O=C(NCCC(F)(F)F)c1nn(Cc2ccccc2)c2c1CN(c1ncnc3[nH]ccc13)CC2 [Compound 111]
< 100 nM

* * *

# IC50 per entry for UniProtKB P29597
# Sequence (P29597 whole entry): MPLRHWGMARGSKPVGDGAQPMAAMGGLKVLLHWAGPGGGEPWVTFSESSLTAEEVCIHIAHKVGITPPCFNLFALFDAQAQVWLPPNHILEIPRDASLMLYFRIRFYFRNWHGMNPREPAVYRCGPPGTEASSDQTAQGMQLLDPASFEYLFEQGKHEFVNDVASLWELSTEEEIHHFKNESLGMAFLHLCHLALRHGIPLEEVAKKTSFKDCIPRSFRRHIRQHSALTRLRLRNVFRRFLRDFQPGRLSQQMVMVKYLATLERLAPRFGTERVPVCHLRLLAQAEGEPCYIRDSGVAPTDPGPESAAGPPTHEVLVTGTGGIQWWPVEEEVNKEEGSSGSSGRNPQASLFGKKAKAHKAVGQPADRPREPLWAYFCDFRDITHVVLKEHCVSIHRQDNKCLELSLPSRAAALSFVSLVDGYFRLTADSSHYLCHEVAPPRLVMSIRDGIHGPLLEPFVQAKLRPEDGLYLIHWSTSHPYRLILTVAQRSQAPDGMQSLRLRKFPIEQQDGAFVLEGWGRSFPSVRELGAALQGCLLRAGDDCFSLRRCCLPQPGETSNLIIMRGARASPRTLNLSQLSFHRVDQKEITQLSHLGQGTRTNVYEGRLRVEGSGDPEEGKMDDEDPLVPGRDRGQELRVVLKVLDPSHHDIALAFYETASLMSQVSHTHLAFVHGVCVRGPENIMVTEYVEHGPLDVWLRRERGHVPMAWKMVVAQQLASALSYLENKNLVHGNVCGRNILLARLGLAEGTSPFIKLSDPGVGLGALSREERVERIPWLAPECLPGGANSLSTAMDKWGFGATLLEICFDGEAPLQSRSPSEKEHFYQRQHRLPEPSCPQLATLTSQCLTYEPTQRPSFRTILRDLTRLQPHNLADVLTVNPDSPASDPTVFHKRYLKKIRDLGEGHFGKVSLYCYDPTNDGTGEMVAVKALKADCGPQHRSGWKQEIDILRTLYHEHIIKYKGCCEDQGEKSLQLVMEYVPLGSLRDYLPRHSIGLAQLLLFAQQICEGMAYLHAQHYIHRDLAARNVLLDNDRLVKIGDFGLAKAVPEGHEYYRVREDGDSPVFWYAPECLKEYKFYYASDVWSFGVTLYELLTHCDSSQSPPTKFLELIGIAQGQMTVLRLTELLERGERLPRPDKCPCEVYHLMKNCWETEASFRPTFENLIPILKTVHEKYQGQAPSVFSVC

compound: O=C(NCC(F)(F)F)c1noc2c1CN(c1ncnc3[nH]ccc13)CC2
IC50: 500 to 2000 nM
--
compound: O=C(NCCC(F)(F)F)c1nn(CCCc2ccccn2)c2c1CN(c1ncnc3[nH]ccc13)CC2
IC50: > 2000 nM
--
compound: O=C(NCCC(F)(F)F)c1nsc2c1CN(c1ncnc3[nH]ccc13)CC2
IC50: 100 to 500 nM
--
compound: O=C(NCCC(F)(F)F)c1nn(CCCCc2ccccc2)c2c1CN(c1ncnc3[nH]ccc13)CC2
IC50: > 2000 nM
--
compound: O=C(NCCN1CCOCC1)c1noc2c1CN(c1ncnc3[nH]ccc13)CC2
IC50: > 2000 nM
--
compound: CN(C)C1CN(CCNC(=O)c2noc3c2CN(c2ncnc4[nH]ccc24)CC3)C1
IC50: > 2000 nM
--
compound: O=C(NCCC1CC1)c1n[nH]c2c1CN(c1ncnc3[nH]ccc13)CC2
IC50: 500 to 2000 nM
--
compound: O=C(NCCC1(O)CC(F)(F)C1)c1noc2c1CN(c1ncnc3[nH]ccc13)CC2
IC50: > 2000 nM
--
compound: O=C(NCCN1CCS(=O)(=O)CC1)c1noc2c1CN(c1ncnc3[nH]ccc13)CC2
IC50: > 2000 nM
--
compound: O=C(NCCC(F)(F)F)c1nn(CCCc2ccccc2)c2c1CN(c1ncnc3[nH]ccc13)CC2
IC50: > 2000 nM

I'm hoping you can list IC50 for every compound here, please.
1. O=C(NCCC(F)(F)F)C1=NOC2CN(c3ncnc4[nH]ccc34)CC12 (centres unmarked)
2. CS(=O)(=O)N1CCCC1CCNC(=O)c1noc2c1CN(c1ncnc3[nH]ccc13)CC2 (centres unmarked)

> 2000 nM
> 2000 nM

Would you mind listing IC50 for each of the following compounds?
1. O=C(NCCC1CC(F)(F)C1)c1noc2c1CN(c1ncnc3[nH]ccc13)CC2
2. O=C(N[C@H]1C[C@@](O)(C(F)(F)F)C1)c1noc2c1CN(c1ncnc3[nH]ccc13)CC2
3. CN(C)S(=O)(=O)CCNC(=O)c1noc2c1CN(c1ncnc3[nH]ccc13)CC2

["> 2000 nM", "500 to 2000 nM", "> 2000 nM"]

For the 7 compounds below, give their IC50 values.
1. Cn1nc(C(=O)N[C@H]2C[C@H](C(=O)NCCC(F)(F)F)C2)c2c1CCN(c1ncnc3[nH]ccc13)C2
2. Cn1cc(C(=O)NCCC(F)(F)F)c2c1CCN(c1ncnc3[nH]ccc13)C2
3. CS(=O)(=O)N1CCC(CNC(=O)c2noc3c2CN(c2ncnc4[nH]ccc24)CC3)C1 (centres unmarked)
4. CS(=O)(=O)N1CC(CCNC(=O)c2noc3c2CN(c2ncnc4[nH]ccc24)CC3)C1
5. O=C(NCCC1CCCC1)c1noc2c1CN(c1ncnc3[nH]ccc13)CC2
6. O=C(NCC(O)C(F)(F)F)c1noc2c1CN(c1ncnc3[nH]ccc13)CC2 (centres unmarked)
7. O=C(NCCc1ccccc1)c1noc2c1CN(c1ncnc3[nH]ccc13)CC2

> 2000 nM
100 to 500 nM
> 2000 nM
> 2000 nM
> 2000 nM
100 to 500 nM
> 2000 nM

Fill in the blank: the reported IC50 of `O=C(NCCC(F)(F)F)c1noc2c1CN(c1ncnc3[nH]ncc13)CC2` is ____.
> 2000 nM
